Every entry's value here was drawn from PubChem BioAssay AID1508625.

We begin with a simple list: items and their reported corrected activity, negative = more killing.
assay: small molecules boosting NK-mediated OVCAR3 lysis – imaging, primary NK cells, calcein-AM imaging, primary screen (AID 1508625);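 further: compound given to NK cells 16 h before adding targets at 1.5 to 1 ratio; reference of the scale not given here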
measurement_conditions: OVCAR3 lysis by primary NK cells, at 5 µM
Field format: number, assumed %, no unit text.

# annotated cases, reported corrected activity, negative = more killing shown
{"columns": ["molecule", "measurement_unit", "test_result"],
 "data": [
  ["N#Cc1cccn1Cc1ccccc1Cl", "%", -4.07],
  ["COc1ccc(C)cc1NC(=O)c1sc2nc(C)nc(N3CCCCC3C)c2c1C (stereo not given)", "%", -3.27],
  ["COCCCNCCOc1c(Cl)cc(C)cc1Br", "%", -4.25],
  ["O=C(Oc1cccc(NC(=O)c2ccccc2Cl)c1)c1ccc(Cl)c(S(=O)(=O)N2CCCCC2)c1", "%", -3.19],
  ["Nc1cc(OC(=O)c2ccccc2Br)nn1S(=O)(=O)c1ccccc1", "%", -1.18]
]}

I have this molecule here, COC(=O)C1C(=O)C2=C(CC1C)NC(C)=C(C(=O)OC1CCCC1)C2c1ccccc1OC(C)C (stereo not given) , and I need its recorded corrected activity, negative = more killing.
-2.11

Further, for O=C(NCCc1ccccc1Cl)C1CC(=O)N(C2CCCCC2)C1 (stereo not given) ?
-2.73

Further, for Cc1ccccc1CSC1=NCCN1C(=O)c1ccc(OC(C)C)cc1 ?
-4.64

Further, for O=C(NN=Cc1ccc[nH]1)C(O)c1ccccc1 (stereo not given) ?
-2.59

Further, for COc1ccc(C(N)=NOC(=O)CSc2ccccc2)cc1 ?
-1.04

Further, for O=C(CSc1nc2cc3c(cc2c(=O)n1Cc1ccco1)OCO3)NCc1ccccc1 ?
-4.67

Further, for CCOc1cc(C=c2sc3nc4ccccc4n3c2=O)ccc1O ?
-2.97

Further, for CCc1ccc(NS(=O)(=O)c2ccc3[nH]cc(C(=O)N(C)Cc4ccccc4)c(=O)c3c2)cc1 ?
-2.32

Further, for COc1ccc(-c2ccc3c(N)c(C(=O)NCCc4ccc(Cl)cc4)sc3n2)cc1 ?
-1.65

Further, for O=[N+]([O-])c1ccc(OCCCN2CCNCC2)cc1 ?
-3.62

Further, for CC(Oc1cccc(Cl)c1)C(=O)NC1CC(C)(C)NC(C)(C)C1 (stereo not given) ?
0.623

Further, for Nc1nc(OCC(F)(F)F)cc(OCC(F)(F)F)n1 ?
-6.92

Further, for O=[N+]([O-])c1ccc(Nc2ncnc3ccccc23)cc1 ?
-1.89

Further, for O=c1oc(-c2ccc(Oc3ccc([N+](=O)[O-])cc3)cc2)nc2ccccc12 ?
-1.57

Further, for COC(=O)c1ccc(C=NN2CCN(c3ccccn3)CC2)cc1 ?
-4.57
